biological target: HIV-1LAI envelope gp120 labeled with radioactive iodine (HIV-1 LAI), P03377; experiment: 125I-gp120, peptide array
Readout kind: counts minus background (counts per 20 min)
The response must contain the number and no unit.

Exercise: Provide measured counts minus background (counts per 20 min) value, entry: TDKYRLHLSVADLLFVIT (modifications not checked) [CXCR4 73-90]
Key: 92

Exercise: Complete the entry with counts minus background (counts per 20 min) for QKRKALKTTVILILAFFA (modifications not checked) [CXCR4 233-250]
Key: 283

Exercise: Please give measured counts minus background (counts per 20 min) of the following entry: SQKEGLHYTCSSHFPYSQ (modifications not checked) [CCR5 169-186]
Key: 304

Exercise: Supply measured counts minus background (counts per 20 min) of HCCINPIIYAFVGEKFRN (modifications not checked) [CCR5 289-306] in your reply.
Key: 200

Exercise: Tell me measured counts minus background (counts per 20 min) for FWAHYAAAQWDFGNTMCQ (modifications not checked) [CCR5 85-102] please.
Key: 212

Exercise: Please give measured counts minus background (counts per 20 min) of the following entry: LPTIYSIIFLTGIVGNGL (modifications not checked) [CXCR4 41-58]
Key: 118

Exercise: Input HSSVSTESESSSFHSS (modifications not checked) [CXCR4 337-352] , output reported counts minus background (counts per 20 min).
Key: 103
